Each recorded value in this set is attributed to patent US9187525B2.

Biological target: T1, natriuretic peptide receptor-B (human)
T1 chain: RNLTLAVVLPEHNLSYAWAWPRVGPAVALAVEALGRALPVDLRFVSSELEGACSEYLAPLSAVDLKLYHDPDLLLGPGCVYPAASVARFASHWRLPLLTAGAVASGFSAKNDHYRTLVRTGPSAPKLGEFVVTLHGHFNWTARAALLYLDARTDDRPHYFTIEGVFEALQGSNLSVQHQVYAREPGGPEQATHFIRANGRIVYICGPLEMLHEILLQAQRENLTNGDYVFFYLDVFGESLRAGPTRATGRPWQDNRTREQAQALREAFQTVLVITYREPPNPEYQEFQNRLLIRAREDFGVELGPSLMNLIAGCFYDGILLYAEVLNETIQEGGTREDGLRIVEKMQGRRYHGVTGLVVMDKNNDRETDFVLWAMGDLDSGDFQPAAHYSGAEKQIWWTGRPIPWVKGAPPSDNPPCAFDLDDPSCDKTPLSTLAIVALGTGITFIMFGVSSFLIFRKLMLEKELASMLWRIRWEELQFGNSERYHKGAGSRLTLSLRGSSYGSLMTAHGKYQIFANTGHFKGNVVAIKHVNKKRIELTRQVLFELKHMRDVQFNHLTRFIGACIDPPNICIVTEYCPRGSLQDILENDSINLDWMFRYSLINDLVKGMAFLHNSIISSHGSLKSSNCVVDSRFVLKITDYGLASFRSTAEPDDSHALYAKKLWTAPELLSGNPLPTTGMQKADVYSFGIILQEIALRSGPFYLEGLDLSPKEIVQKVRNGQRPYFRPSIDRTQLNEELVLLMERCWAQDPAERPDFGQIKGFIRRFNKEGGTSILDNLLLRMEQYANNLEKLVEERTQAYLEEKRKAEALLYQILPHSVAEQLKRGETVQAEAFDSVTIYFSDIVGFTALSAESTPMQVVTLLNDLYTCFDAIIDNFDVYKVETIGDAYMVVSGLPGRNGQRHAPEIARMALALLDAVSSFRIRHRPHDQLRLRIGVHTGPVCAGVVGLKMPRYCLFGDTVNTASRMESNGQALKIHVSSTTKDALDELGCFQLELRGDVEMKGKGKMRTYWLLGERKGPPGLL
Assay: cell-based or functional assay
Numbered stars: 1 amine (or outer) side, 2 acyl side, 3 side chain; on linkers, the order of the positions; unused ones are H or OH. Square brackets hold non-standard residues; d marks the D form. Ends that are not written are not given here. * marks the point of attachment. Nbhp = rac-(2,3-dihydroxy-propylamino)-acetic acid, O=C(CN(CC(O)CO[*:3])[*:1])[*:2]; Pro(trans-4-NH2) = O=C([C@@H]1C[C@@H](N[*:3])CN1[*:1])[*:2]; Sni = (S)-nipecotic acid, O=C([C@H]1CCCN([*:1])C1)[*:2]; Butanoyl(4-(4-MeO-phenyl)) = COc1ccc(CCCC(=O)*)cc1; Phe(2-CF3) = N[C@@H](Cc1ccccc1C(F)(F)F)C(=O)O; dDap(Me2) = CN(C)C[C@@H](N)C(=O)O; Hyp = O=C(O)[C@@H]1C[C@@H](O)CN1; NMeI = CC[C@H](C)[C@H](NC)C(=O)O; dAgb = N=C(N)NCC[C@@H](N)C(=O)O; ES‑283‑049 = not defined here; NMeL = CN[C@@H](CC(C)C)C(=O)O; Chg = N[C@H](C(=O)O)C1CCCCC1; orn(Me2) = not defined here; Ac6c = NC1(C(=O)O)CCCCC1; Octanoyl = CCCCCCCC(=O)*; Che = not defined here; Oct = not defined here; leu = not defined here; Occ = octanoic acid
MEASUREMENT_LABEL: EC50 group, cGMP in GTM-3 cells

Use the examples below as a reference point.
[
  {
    "BINDER": "[Occ][Sni]FAL[Hyp][NMeL]DRI-NH2 [JAL-1553]",
    "MEASUREMENT_LABEL": "EC50 group, cGMP in GTM-3 cells",
    "RESULT": "≤ 15 µM"
  },
  {
    "BINDER": "Octanoyl-[Sni]F[leu]L[Hyp][NMeL]DPI-OH (reading uncertain; also: printed as Occ-Sni-Phe-leu-Leu-Hyp-Nml-Asp-Pro-Ile-OH) [JAL-1474]",
    "MEASUREMENT_LABEL": "EC50 group, cGMP in GTM-3 cells",
    "RESULT": "≤ 15 µM"
  },
  {
    "BINDER": "[Occ][Sni]F[dL]L[Pro(trans-4-NH2)][NMeL]DP[Che] (reading uncertain; also: printed as Occ-Sni-Phe-leu-Leu-Tap-Nml-Asp-Pro-Che) [JAL-1568]",
    "MEASUREMENT_LABEL": "EC50 group, cGMP in GTM-3 cells",
    "RESULT": "≤ 1 µM"
  },
  {
    "BINDER": "[Oct][Sni]F[leu]L[Pro(trans-4-NH2)][NMeL]VP[Che] (reading uncertain; also: printed as Oct-Sni-Phe-leu-Leu-Tap-Nml-Val-Pro-Che) [JAL-1844]",
    "MEASUREMENT_LABEL": "EC50 group, cGMP in GTM-3 cells",
    "RESULT": "≤ 5 µM"
  },
  {
    "BINDER": "Octanoyl-[dA]F[dAgb]LPLDRI-NH2 [JAL-1121]",
    "MEASUREMENT_LABEL": "EC50 group, cGMP in GTM-3 cells",
    "RESULT": "≤ 5 µM"
  },
  {
    "BINDER": "Octanoyl-[dS]FGLKLDRI-NH2 [JAL-0763]",
    "MEASUREMENT_LABEL": "EC50 group, cGMP in GTM-3 cells",
    "RESULT": "≤ 15 µM"
  },
  {
    "BINDER": "Octanoyl-[dA]F[dL]L[Hyp][NMeL]D[Ac6c]I-NH2 [JAL-1457]",
    "MEASUREMENT_LABEL": "EC50 group, cGMP in GTM-3 cells",
    "RESULT": "≤ 15 µM"
  },
  {
    "BINDER": "[Occ][Sni]F[orn(Me2)]L[Hyp][NMeL]SRI-NH2 (reading uncertain; also: printed as Occ-Sni-Phe-orn(Me2)-Leu-Hyp-Nml-Ser-Arg-Ile-NH2) [JAL-1921]",
    "MEASUREMENT_LABEL": "EC50 group, cGMP in GTM-3 cells",
    "RESULT": "≤ 15 µM"
  },
  {
    "BINDER": "[Occ][Sni]F[dDap(Me2)]L[Hyp][NMeL]DR[NMeI]-NH2 [JAL-1575]",
    "MEASUREMENT_LABEL": "EC50 group, cGMP in GTM-3 cells",
    "RESULT": "≤ 15 µM"
  },
  {
    "BINDER": "XXFGLKLDRI (HELM PEPTIDE1{[CCCCCC(=O)[*:2]].[O=C(c1ccc(CN[*:1])cc1)[*:2]].F.G.L.K.L.D.R.I.[am]}$$$$V2.0; SMILES CCCCCC(=O)NCc1ccc(C(=O)N[C@@H](Cc2ccccc2)C(=O)NCC(=O)N[C@@H](CC(C)C)C(=O)N[C@@H](CCCCN)C(=O)N[C@@H](CC(C)C)C(=O)N[C@@H](CC(=O)O)C(=O)N[C@@H](CCCNC(=N)N)C(=O)N[C@H](C(N)=O)[C@@H](C)CC)cc1) [JAL-0648]",
    "MEASUREMENT_LABEL": "EC50 group, cGMP in GTM-3 cells",
    "RESULT": "≤ 15 µM"
  }
]

QUERY: # query: EC50 group, cGMP in GTM-3 cells of entry Octanoyl-[dA][dA]FGLK[Chg]DRI-NH2 [JAL-0772]
RESULT: ≤ 15 µM

QUERY: Request the reported EC50 group, cGMP in GTM-3 cells associated with {Butanoyl(4-(4-MeO-phenyl))}-[Sni]F[dL]L[Hyp][NMeL]DRI-NH2 [JAL-1607]
RESULT: ≤ 15 µM

QUERY: Which EC50 group, cGMP in GTM-3 cells reading was recorded for the binder Octanoyl-[Nbhp]FLL[Hyp][NMeL]DRI-NH2 (not fully specified (some residues); printed as Occ-Nbhp-Phe-leu-Leu-Hyp-Nml-Asp-Arg-Ile-NH2) [JAL-1799] ?
RESULT: ≤ 5 µM

QUERY: Recorded EC50 group, cGMP in GTM-3 cells of Octanoyl-[Sni]F[dL]L[Pro(trans-4-NH2)](Et)[NMeL]DRI-NH2 [JAL-1349] , please.
RESULT: ≤ 1 µM

QUERY: Query: EC50 group, cGMP in GTM-3 cells; subject: [Occ][Sni][Phe(2-CF3)][leu]L[Hyp][NMeL]DRI-NH2 (reading uncertain; also: printed as Occ-Sni-Otf-leu-Leu-Hyp-Nml-Asp-Arg-Ile-NH2) [JAL-1622]
RESULT: ≤ 15 µM

QUERY: Look at this binder and give its reported EC50 group, cGMP in GTM-3 cells. [Occ]AFVLPLDRI-NH2 (not fully specified (residues 2, 4); printed as Occ-ala-Phe-val-Leu-Pro-Leu-Asp-Arg-Ile-NH2) [JAL-1012]
RESULT: ≤ 15 µM

QUERY: Any idea what EC50 group, cGMP in GTM-3 cells was measured for [Occ][Sni]F[leu]L[Hyp][NMeL]D[ES‑283‑049] (reading uncertain; also: printed as Occ-Sni-Phe-leu-Leu-Hyp-Nml-Asp-(ES-283-049)) [JAL-1646] ?
RESULT: ≤ 5 µM
